Target: T1, human PD-1_Fc (human, UniProt Q15116 25-167, limits assumed)
T1 construct: also called hPD-1_Fc
T1 sequence (Q15116 25-167 limits assumed): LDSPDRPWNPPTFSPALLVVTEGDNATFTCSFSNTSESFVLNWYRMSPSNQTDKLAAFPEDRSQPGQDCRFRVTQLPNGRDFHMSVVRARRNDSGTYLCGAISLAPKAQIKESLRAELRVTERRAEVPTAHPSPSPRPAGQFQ
Test: BLI (ForteBio), Fab in solution, hPD-1_Fc on sensor tip
Listing: pKd of selected binders
Reminder that pKd is minus the log10 of a molar concentration.

Solved cases below.
{"binder": "xd-16 C, Fab format produced from IgG1 expressed in yeast (Fab, V domains shown, Fab produced from the yeast IgG1) VH: QVQLVQSGAEVKKPGSSVKVSCKASGGTFSSTAISWVRQAPGQGLEWMGGIWPSFGTASYAQKFRGRVTITADESTSTAYMELSSLRSEDTAVYYCARAEYSSTGTFDYWGQGTLVTVSS VL: DIQMTQSPSSVSASVGDRVTITCRASQGISSWLAWYQQKPGKAPKLLISAASSLQSGVPSRFSGSGSGTDFTLTISSLQPEDFATYYCQQANHLPFTFGGGTKVEIK", "pKd": 9.24}
{"binder": "xd-16 B, Fab format produced from IgG1 expressed in yeast (Fab, V domains shown, Fab produced from the yeast IgG1) VH: QVQLVQSGAEVKKPGSSVKVSCKASGGTFSSTAISWVRQAPGQGLEWMGGIWPSFGTASYAQKFQGRVTITADESTSTAYMELSSLRSEDTAVYYCARAEYSSTGIFDYWGQGTLVTVSS VL: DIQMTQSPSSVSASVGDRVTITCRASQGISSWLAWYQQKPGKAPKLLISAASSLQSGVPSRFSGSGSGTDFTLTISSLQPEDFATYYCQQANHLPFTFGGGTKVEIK", "pKd": 9.20}
{"binder": "xd-16 E, Fab format produced from IgG1 expressed in yeast (Fab, V domains shown, Fab produced from the yeast IgG1) VH: QVQLVQSGAEVKKPGSSVKVSCKASGGTFSSTAISWVRQAPGQGLEWMGGIWPSFGTANYARKFQGRVTITADESTSTAYMELSSLRSEDTAVYYCARAEYSSTGIFDYWGQGTLVTVSS VL: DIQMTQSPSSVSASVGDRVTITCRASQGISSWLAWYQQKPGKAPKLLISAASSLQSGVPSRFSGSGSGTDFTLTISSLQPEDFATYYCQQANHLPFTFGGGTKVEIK", "pKd": 9.07}

Continue with the next binder.
Short answer for xd-16 D, Fab format produced from IgG1 expressed in yeast (Fab, V domains shown, Fab produced from the yeast IgG1) VH: QVQLVQSGAEVKKPGSSVKVSCKASGGTFSSTAISWVRQAPGQGLEWMGGIWPSFDTANYAQKFRGRVTITADESTSTAYMELSSLRSEDTAVYYCARAEYSSTGTFDYWGQGTLVTVSS VL: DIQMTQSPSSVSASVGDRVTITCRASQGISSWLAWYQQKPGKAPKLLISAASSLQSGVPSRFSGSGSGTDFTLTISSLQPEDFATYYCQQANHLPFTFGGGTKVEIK : pKd was 9.00
